Reference source for all entries: paper PMC4467241

Type: in vivo, human
Details: human, plasma, po, AUC0–t, MTX 12.5 mg oral + Apremilast 30 mg Q12H (Day 8), plasma, N = 1
test readout: AUC(0-t) (ng·h/mL)
Write the value in ng·h/mL as a bare number.

# input Bench note: what AUC(0-t) did CN(Cc1cnc2nc(N)nc(N)c2n1)c1ccc(C(=O)N[C@@H](CCC(=O)O)C(=O)O)cc1 [MTX, methotrexate, reference compound] show?
# output 3020

---

Assay type: in vivo, human
Conditions: human, plasma, po, Cmax, MTX 17.5 mg oral + Apremilast 30 mg Q12H (Day 8), plasma, N = 1
test readout: Cmax (ng/mL)
Numeric answer only, unit ng/mL assumed.

# input Name the recorded Cmax for CN(Cc1cnc2nc(N)nc(N)c2n1)c1ccc(C(=O)N[C@@H](CCC(=O)O)C(=O)O)cc1 [MTX, methotrexate, reference compound] .
# output 565

---

Assay type: in vivo, human
Settings: human, plasma, po, tmax, MTX 17.5 mg oral + Apremilast 30 mg Q12H (Day 8), plasma, N = 1
test readout: tmax (h)
Give the value, in units of h, as a plain number.

# input Entry CN(Cc1cnc2nc(N)nc(N)c2n1)c1ccc(C(=O)N[C@@H](CCC(=O)O)C(=O)O)cc1 [MTX, methotrexate, reference compound] : reported tmax = ?
# output 1

---

Assay type: in vivo, human
Conditions: human, plasma, po, 12.5 mg, tmax, MTX 12.5 mg oral alone (Day 1), plasma, N = 1
test readout: tmax (h)
State just the number; it will be interpreted in h.

# input May I ask what tmax has been recorded for CN(Cc1cnc2nc(N)nc(N)c2n1)c1ccc(C(=O)N[C@@H](CCC(=O)O)C(=O)O)cc1 [MTX, methotrexate, reference compound] ?
# output 1

---

Assay type: in vivo, human
Conditions: human, plasma, po, 10 mg, AUC0–∞, MTX 10 mg oral alone (Day 1), plasma, N = 1
test readout: AUC(0-inf)

# input Entry CN(Cc1cnc2nc(N)nc(N)c2n1)c1ccc(C(=O)N[C@@H](CCC(=O)O)C(=O)O)cc1 [MTX, methotrexate, reference compound] : reported AUC(0-inf) = ?
# output 1380 ng·h/mL

---

Format: in vivo, human
Conditions: human, plasma, po, 10 mg, AUC0–t, MTX 10 mg oral alone (Day 1), plasma, N = 1
test readout: AUC(0-t) (ng·h/mL)
Just the number in ng·h/mL, nothing appended.

# input compound: CN(Cc1cnc2nc(N)nc(N)c2n1)c1ccc(C(=O)N[C@@H](CCC(=O)O)C(=O)O)cc1 [MTX, methotrexate, reference compound] ; wanted: its AUC(0-t)
# output 1390

---

Format: in vivo, human
Conditions: human, plasma, po, t1/2, MTX 12.5 mg oral + Apremilast 30 mg Q12H (Day 8), plasma, N = 1
test readout: half-life (h)
Give the quantity in h, number only.

# input Query (molecule): CN(Cc1cnc2nc(N)nc(N)c2n1)c1ccc(C(=O)N[C@@H](CCC(=O)O)C(=O)O)cc1 [MTX, methotrexate, reference compound] ; field requested: half-life
# output 3.2

---

Assay type: in vivo, human
Details: human, plasma, po, Cmax, MTX 12.5 mg oral + Apremilast 30 mg Q12H (Day 8), plasma, N = 1
test readout: Cmax
Value and unit, in that order.

# input Quick one: Cmax for CN(Cc1cnc2nc(N)nc(N)c2n1)c1ccc(C(=O)N[C@@H](CCC(=O)O)C(=O)O)cc1 [MTX, methotrexate, reference compound] ?
# output 669 ng/mL
